target_or_test_system: human GPCR sphingosine 1-phosphate receptor 2 (Homo sapiens, UniProt O95136)
Construct: host or cells: CHO
Sequence (O95136 whole entry): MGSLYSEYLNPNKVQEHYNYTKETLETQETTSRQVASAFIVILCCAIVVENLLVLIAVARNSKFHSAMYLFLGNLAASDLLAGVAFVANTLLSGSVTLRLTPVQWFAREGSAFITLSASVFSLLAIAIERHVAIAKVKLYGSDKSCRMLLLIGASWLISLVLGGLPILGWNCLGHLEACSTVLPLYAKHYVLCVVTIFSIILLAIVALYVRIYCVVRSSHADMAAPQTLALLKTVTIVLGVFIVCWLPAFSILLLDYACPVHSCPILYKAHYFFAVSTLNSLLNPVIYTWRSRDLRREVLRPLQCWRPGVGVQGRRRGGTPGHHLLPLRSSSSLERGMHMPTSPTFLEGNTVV
method_description: S1PR2 antagonist Ca2+ flux assay
Format: cell-based
particulars: antagonist mode, CHO-S1PR2 cells, S1P at EC80, Ca2+ fluorescence; read-out: S1P2 EC50 (nM), S1P2 antagonist EC50
quantity_name: EC50 (nM)
Provide only the numeric value, understood in nM.

Some entries whose results are on file:
>>> df
                                   compound  quantity_name  value_observed
0  N#Cc1cc2nn(Cc3nn(CC(=O)N4CCOCC4)c(=O)c4ccccc34)cc2cc1OCC(F)F           EC50           13200
1  N#Cc1cc2[nH]c(Cc3nn(CC(=O)N4CC[C@H](O)C4)c(=O)c4ccccc34)nc2cc1OCC(F)F           EC50             120
2  CC(C(=O)O)c1nn(Cc2nc3cc(OCC4CC4)c(C#N)cc3[nH]2)c2ccccc2c1=O (stereo not shown)           EC50            3.49
3  CCOc1cc2[nH]c(Cc3nn(CC(=O)N4CCOCC4)c(=O)c4c3CCCC4)nc2cc1C#N           EC50            13.2
4  CC(C)(C)NC(=O)Cn1nc(Cc2nc3cc(OCC(F)F)c(C#N)cc3[nH]2)c2c(c1=O)CCCC2           EC50             148
5  COc1ccc2c(=O)n(CC(=O)N3CCOCC3)nc(Cc3nc4cc(Cl)c(OCC(F)F)cc4[nH]3)c2c1           EC50            9.47
6  CN(C)C(=O)C1CCN(C(=O)Cn2nc(Cc3nc4cc(OCC(F)F)c(C#N)cc4[nH]3)c3ccccc3c2=O)CC1           EC50             958
7  COC1CCN(C(=O)Cn2nc(Cc3nc4cc(C#N)c(OCC(F)F)cc4[nH]3)c3ccccc3c2=O)C1 (stereo not shown)           EC50              25

Given item O=C(Cn1nc(Cn2cc3cc(OCC4CC4)c(Cl)cc3n2)c2ccccc2c1=O)NS(=O)(=O)C1CC1 , the value recorded as its EC50 is 8.29

Given item N#Cc1cc2[nH]c(Cc3nn(C4CCNC4)c(=O)c4ccccc34)nc2cc1OCC(F)F (stereo not shown) , the value recorded as its EC50 is 137

Given item N#Cc1cc2[nH]c(Cc3nn(CC(=O)NC4CCOC4)c(=O)c4ccccc34)nc2cc1OCC(F)F (stereo not shown) , the value recorded as its EC50 is 118

Given item O=C(O)C1(Cn2nc(Cc3nc4cc(Cl)c(OC(F)(F)F)cc4[nH]3)c3ccccc3c2=O)CC1 , the value recorded as its EC50 is 2240

Given item O=C(O)Cn1nc(Cc2nc3cc(Cl)c(OCC4CC4)cc3[nH]2)c2c(c1=O)CCCC2 , the value recorded as its EC50 is 8.18

---

target_or_test_system: S1PR2 (Homo sapiens)
Construct: expressed in transfected cells
Sequence (O95136 whole entry): as the sequence (O95136 whole entry) above
method_description: S1PR2 binding assay (competition with radioactively labeled S1P, SpA)
particulars: membranes from stable cell line over expressing S1PR2, SpA beads; read-out: S1P2 EC50 (nM), S1PR2 binding EC50
# label = bin(measured EC50), where bins are group 1 (below 100 nM), group 2 (100 nM to below 700 nM), group 3 (700 nM or more)

In [3]: df
Out[3]:
                                   molecule  category
0  CC(C)(C)COc1cc2nc(Cc3nn(CC(=O)O)c(=O)c4ccccc34)[nH]c2cc1Cl   group 2
1  N#Cc1cc2[nH]c(Cc3nn(CC(=O)NCC(F)(F)F)c(=O)c4ccccc34)nc2cc1OCC(F)F   group 3
2  CS(=O)(=O)c1ccc2c(=O)n(CC(=O)N3CCOCC3)nc(Cc3nc4cc(Cl)c(OCC(F)F)cc4[nH]3)c2c1   group 3
3  O=c1c2ccccc2c(Cc2nc3cc(Cl)c(OC(F)(F)F)cc3[nH]2)nn1CC1CC1   group 3
4  Cc1cccc2c(=O)n(CC(=O)N3CCOCC3)nc(Cc3nc4cc(OCC(F)F)c(C#N)cc4[nH]3)c12   group 1

Sort CN1CCCC(Cn2nc(Cc3nc4cc(Cl)c(OC(F)(F)F)cc4[nH]3)c3ccccc3c2=O)C1 (stereo not shown) into one of the categories.
group 3

Sort CCOc1cc2cn(Cc3nn(CC(=O)O)c(=O)c4ccccc34)nc2cc1Cl into one of the categories.
group 2

Sort O=C(Cn1nc(Cc2nc3cc(Cl)c(OCC(F)F)cc3[nH]2)c2ccccc2c1=O)N1CCOCC1 into one of the categories.
group 1

Sort O=C(O)Cn1nc(Cn2[nH]c3cc(OCC4CC4)c(Cl)cc3c2=O)c2ccccc2c1=O into one of the categories.
group 3

---

Collected EC50 values appear next to each entry.
target_or_test_system: human GPCR sphingosine 1-phosphate receptor 5 (Homo sapiens)
Construct: host or cells: CHO
Sequence (Q9H228 whole entry): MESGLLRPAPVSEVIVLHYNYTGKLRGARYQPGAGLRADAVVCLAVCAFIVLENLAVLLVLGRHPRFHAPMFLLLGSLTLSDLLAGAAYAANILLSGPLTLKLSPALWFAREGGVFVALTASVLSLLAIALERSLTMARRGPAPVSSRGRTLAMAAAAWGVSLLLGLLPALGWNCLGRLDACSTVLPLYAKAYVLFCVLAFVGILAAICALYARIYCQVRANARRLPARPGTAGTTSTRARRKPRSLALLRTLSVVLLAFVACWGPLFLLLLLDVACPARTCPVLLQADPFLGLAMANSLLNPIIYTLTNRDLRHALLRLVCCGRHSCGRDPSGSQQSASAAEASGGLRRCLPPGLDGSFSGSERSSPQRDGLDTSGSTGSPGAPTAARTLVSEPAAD
method_description: S1PR5 selectivity Ca2+ flux assay (antagonist readout)
Assay type: cell-based
particulars: CHO cells overexpressing human S1PR5 and Gq, agonist at EC80 (20 nM), read-out: S1P5 EC50 (nM), S1P5 antagonist EC50
Provide only the numeric value, understood in nM.

Some entries whose results are on file:
                                test_smiles  quantity_name  value_observed
0  O=C(Cn1nc(Cn2cc3cc(OCC4CC4)c(Cl)cc3n2)c2ccccc2c1=O)NS(=O)(=O)C1CC1           EC50           19800
1  O=C(O)Cn1nc(Cc2nc3cc(OCC4CC4)c(C(F)(F)F)cc3[nH]2)c2ccccc2c1=O           EC50           19800
2  O=c1c2ccccc2c(Cc2nc3cc(Cl)c(OCC(F)F)cc3[nH]2)nn1C1CC1           EC50            6610
3  O=C(O)Cn1nc(Cc2nc3cc(Cl)c(OCC4CC4)cc3[nH]2)c2c(c1=O)CCCC2           EC50           13200
4  O=C(O)Cc1nn(Cc2cn3cc(OCC4CC4)c(C(F)(F)F)cc3n2)c2ccccc2c1=O           EC50            6610

Given item O=C(O)Cn1nc(Cc2nc3cc(Cl)c(OCC(F)F)cc3[nH]2)c2c(c1=O)CCCC2 , the value recorded as its EC50 is 19800

---

target_or_test_system: human GPCR sphingosine 1-phosphate receptor 1 (Homo sapiens, UniProt P21453)
Construct: host or cells: CHO
Sequence (P21453 whole entry): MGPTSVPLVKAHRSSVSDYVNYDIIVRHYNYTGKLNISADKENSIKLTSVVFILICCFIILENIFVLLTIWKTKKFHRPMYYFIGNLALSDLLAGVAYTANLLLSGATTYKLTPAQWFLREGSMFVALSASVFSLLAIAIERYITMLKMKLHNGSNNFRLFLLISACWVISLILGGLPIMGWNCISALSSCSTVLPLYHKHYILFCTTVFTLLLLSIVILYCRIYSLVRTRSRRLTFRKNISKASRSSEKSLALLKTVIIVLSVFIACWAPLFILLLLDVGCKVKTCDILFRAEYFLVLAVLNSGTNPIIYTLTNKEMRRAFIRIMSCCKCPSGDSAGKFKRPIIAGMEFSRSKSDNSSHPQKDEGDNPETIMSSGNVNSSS
method_description: S1PR1 selectivity Ca2+ flux assay (antagonist readout)
Type: cell-based
particulars: antagonist readout, CHO cells overexpressing human S1PR1 and Gq, S1P at EC80 (6 nM); read-out: S1P1 EC50 (nM), S1P1 antagonist EC50
quantity_name: EC50

Some entries whose results are on file:
In [3]: df
Out[3]:
                                   compound  value_observed
0  O=C(O)C1(n2nc(Cn3cc4cc(OCC5CC5)c(Cl)cc4n3)c3ccccc3c2=O)CC1      ≥ 19800 nM
1  O=C(Cn1nc(Cn2cc3cc(OCC4CC4)c(Cl)cc3n2)c2ccccc2c1=O)NS(=O)(=O)C1CC1      ≥ 19800 nM
2  CCOc1cc2[nH]c(Cc3nn(CC(=O)N4CCOCC4)c(=O)c4c3CCCC4)nc2cc1C#N      ≥ 19800 nM
3  C[C@H](C(=O)O)c1nn(Cc2cn3cc(OCC4CC4)c(Cl)cc3n2)c2ccccc2c1=O        19900 nM
4  C[C@@H]1CN(C(=O)Cn2nc(Cc3nc4cc(OCC(F)F)c(C#N)cc4[nH]3)c3ccccc3c2=O)C[C@H](C)O1      ≥ 19800 nM
5  N#Cc1cc2[nH]c(Cc3nn(CC(=O)N4CCOCC4)c(=O)c4ccccc34)nc2cc1OCC(F)(F)F      ≥ 19800 nM

Given item CCOc1cc2cn(Cc3nn(CC(=O)O)c(=O)c4ccccc34)nc2cc1Cl , the value recorded as its EC50 is ≥ 19900 nM

Given item O=C(O)c1cn(Cc2nc3cc(OCC4CC4)c(Cl)cc3[nH]2)c2ccccc2c1=O , the value recorded as its EC50 is 4580 nM

Given item N#Cc1cc2nn(Cc3nn(CC(=O)O)c(=O)c4ccccc34)cc2cc1OCC1CC1 , the value recorded as its EC50 is ≥ 19800 nM

Given item N#Cc1cc2nc(Cc3nn(CC(=O)O)c(=O)c4ccccc34)cn2cc1OCC1CC1 , the value recorded as its EC50 is ≥ 19800 nM

Given item O=C(Cn1nc(Cc2nc3cc(Cl)c(OCC4CC4)c(F)c3[nH]2)c2ccccc2c1=O)N1CCOCC1 , the value recorded as its EC50 is ≥ 19800 nM

Given item CC(C(=O)O)c1nn(Cc2nc3cc(OCC4CC4)c(C#N)cc3[nH]2)c2ccccc2c1=O (centres unmarked) , the value recorded as its EC50 is 2150 nM

Given item O=C(O)Cc1nn(Cc2cn3cc(OCC4CC4)c(Cl)cc3n2)c2ccccc2c1=O , the value recorded as its EC50 is ≥ 19800 nM

Given item N#Cc1cc2[nH]c(Cc3nn(CC(=O)O)c(=O)c4ccccc34)nc2cc1OCC1CC1 , the value recorded as its EC50 is ≥ 19800 nM

Given item COCCOc1cc2nc(Cc3nn(C4CCNC4)c(=O)c4ccccc34)[nH]c2cc1Cl (centres unmarked) , the value recorded as its EC50 is ≥ 19800 nM

Given item N#Cc1cc2[nH]c(Cc3nn(C4CCNC4)c(=O)c4ccccc34)nc2cc1OCC(F)F (centres unmarked) , the value recorded as its EC50 is ≥ 19800 nM

Given item N#Cc1cc2[nH]c(Cc3nn(CC(=O)N4CCC(O)(C5CC5)CC4)c(=O)c4ccccc34)nc2cc1OCC(F)F , the value recorded as its EC50 is ≥ 19800 nM
